B1: LYSMD4 (parent)
chain: LLQRELAQEDSLNKLALQYGCKVA

# Variants of: B1
# test.summary: protein stability index of a GFP-peptide fusion (GPS, HEK-293T) (PSI 1-6); higher = more stable;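 also: lentivirally expressed fusions sorted by FACS into six bins by GFP to DsRed ratio, PSI derived from sequencing read proportions per bin multiplied by bin number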
# condition.context: c terminus: a fixed tail appended
Class true (1): protein stability index at least 3. Class false (0): protein stability index below 3.

• Y19N = true (1)

**Q:** Record L2P ; criterion: protein stability index no lower than 3. Met?
**A:** false (0)

**Q:** Record A16I ; criterion: protein stability index no lower than 3. Met?
**A:** false (0)

**Q:** Record V23Y ; criterion: protein stability index no lower than 3. Met?
**A:** false (0)

**Q:** Record S11K ; criterion: protein stability index no lower than 3. Met?
**A:** false (0)
